Origin of measurements: patent US8829202B2

Assay: Solubility of the obtained compound in chloroform
Format: physicochemical
Details: solvent chloroform
endpointName: solubility in chloroform (wt %)

cpdSmiles | unitAbbreviation | numericValue
C[Si](C)(C)C#Cc1c2ccccc2cc2sc3c(sc4cc5ccccc5c(C#C[Si](C)(C)C)c43)c12 | wt % | 0.05

(I) CCCCCCCCCCCCC#Cc1c2ccccc2cc2sc3c(sc4cc5ccccc5c(C#CCCCCCCCCCCCC)c43)c12
(II) CCCCCCCCCCc1c2ccccc2cc2sc3c(sc4cc5ccccc5c(CCCCCCCCCC)c43)c12
(III) CCCCCCCCC#Cc1c2ccccc2cc2sc3c(sc4cc5ccccc5c(C#CCCCCCCCC)c43)c12
## Task Hi! Can you put these in order of solubility in chloroform, lowest number first? # list labels per requested ordering
## Result II, III, I
(II: 0.05 wt %, III: 2.3 wt %, I: 6.5 wt %)
